experiment: inhibitors of TNFa-induced NFkB p65 translocation, primary screen, imaging, HUVEC, MLSMR starter and 10KST1 sets (AID 438); details: HUVEC TNFa-induced p65 nuclear translocation; measured here: nuclei count (cytotoxicity indicator), at 2.08 µM;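 note: compound added about 3h40 before a 20 min TNFalpha stimulation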
# Lookup of reported cell count keyed by entry

MOLECULE | cell count
Cc1ccc(S(=O)(=O)NCC(=O)N(CC(=O)NCc2ccccc2)CC2CCCO2)cc1 (stereo unspecified) | 341
CC(NC(=O)c1cn(C)c2ccc(S(=O)(=O)N3CCCC3)cc2c1=O)c1ccc2c(c1)OCCO2 (stereo unspecified) | 766
O=C(NCc1cccnc1)c1ccccn1 | 354
COc1ccccc1-n1c(-c2cccnc2)n[nH]c1=S | 204
Cc1cccc(C2CC(c3ccc(Br)cc3)Nc3nc(N)nn32)c1 (stereo unspecified) | 683
O=C(COC(=O)CCC1CCCC1)Nc1ccc(Cl)cn1 | 429
COC(=O)c1ccc(Cl)c(NC(C)=O)c1 | 367
O=C(CN1CCCC1)Nc1ccc(NC(=O)Nc2ccccc2)cc1 | 433
C1CCc2nnc(-c3nnc4n3CCCCC4)n2CC1 | 396
CCc1nnc(NC(=O)C2CC(=O)N(Cc3ccco3)C2)s1 (stereo unspecified) | 428
CCOC(=O)C1CCCN(C(=O)c2cn(C)c(=O)c3cc(OC)c(OC)cc23)C1 (stereo unspecified) | 746

----------
assay: reduction of polyQ htt aggregates in cells – imaging, exon1htt(103Q)mCFP cells, high-content imaging, primary screen (AID 483); details: exon1htt(103Q)mCFP cell line, aggregate imaging, at 2 µM; stronger effect = higher value;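 note: compound exposure lasted 3 days before fixation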
Activity calls are given as the source filed them.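 The calls were made as follows: active = visual image review flags a hit and inhibition of aggregation exceeds 20%; inconclusive = visual hit but inhibition at or below 20%; inactive = no hit on visual image review.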

COMPOUND | inhibition of aggregation
CCCCn1c(=O)[nH]c(=O)c2c1nc(-c1ccncc1)n2CCOC | -7.3% (inactive)
O=C(CSc1nc(-c2ccccc2)cs1)NC(=O)NCc1ccco1 | 1% (inactive)
S=c1[nH]nc(-c2ccco2)n1-c1cccc2ccccc12 | -1.8% (inactive)
COc1ccc(N(CC(=O)NCCSC(C)(C)C)S(C)(=O)=O)c(OC)c1 | 12.9% (inactive)
O=C(NC1(C(=O)NC2CCCCC2)CCCCC1)c1ccc2c(c1)OCO2 | 16.2% (inactive)
CC(NS(=O)(=O)c1ccc(F)cc1)C(c1cccs1)N1CCN(C)CC1 (centres undefined) | -11.1% (inactive)
CCOc1ccc(Cc2nn[nH]n2)cc1 | 10.3% (inactive)
COc1cccc(C(=O)Nc2ccc(C)cc2)c1 | 4.8% (inactive)
Cc1ccc(S(=O)(=O)Cn2nnnc2CN(Cc2ccco2)CC2CCCO2)cc1 (centres undefined) | 2.3% (inactive)
Cc1cc(NC(=O)CCCN2C(=O)c3cccnc3C2=O)no1 | 17.7% (inactive)
Cc1c(C(=O)N2CCOCC2)oc2ccc(S(=O)(=O)N3CCCC3)cc12 | 4.5% (inactive)
CC1=C(C(=O)NC2CCCC(C)C2C)C2(CCCCC2)OC1=O (centres undefined) | 18.1% (inactive)
CNC(=O)c1ccsc1NC(=O)c1ccccc1 | 12.3% (inactive)
Cn1c(=N)n(CC(=O)O)c2ccccc21 | 6.2% (inactive)
N#Cc1c(-c2ccccc2)nc(N2CCCCCC2)[nH]c1=O | 1.9% (inactive)
Cn1nc(C(=O)NC2CCCCCC2)ccc1=O | 14% (inactive)
O=C(CSc1nnnn1-c1ccccc1)c1cc2ccccc2oc1=O | -9.6% (inactive)
COc1ccc(C2CC(=O)C(C=NCCCN3CCOCC3)=C(O)C2)cc1 (centres undefined) | 14% (inactive)
COc1ccc(CCNC(=O)C2(C)CCC(=O)N2Cc2ccc3c(c2)OCO3)cc1OC (centres undefined) | 18.7% (inactive)
CN(Cc1ccccc1)S(=O)(=O)c1ccc(S(=O)(=O)N2CCN(CCC#N)CC2)cc1 | -13.6% (inactive)
CC(C)(C)n1nnnc1C(c1ccccc1)N1CCc2ccccc2C1 (centres undefined) | 16% (inactive)
Cc1ccc(N=C2NC(=O)CS2)c(C)c1 | 22.3% (inactive)
CC12COC3(C(=O)Nc4ccc(Cl)cn4)CC1CCC32C (centres undefined) | 16.9% (inactive)
CN=C(Nc1ccc2c(c1)OCO2)SC1CC(=O)N(c2ccccc2)C1=O (centres undefined) | 6.4% (inactive)
